Each recorded value in this set is attributed to patent US20210363269A1.

Kindly state Kd for each of the entries shown.
- studyTarget: T1, NOD mouse SIRP-α (mouse (NOD strain))
- T1 chain: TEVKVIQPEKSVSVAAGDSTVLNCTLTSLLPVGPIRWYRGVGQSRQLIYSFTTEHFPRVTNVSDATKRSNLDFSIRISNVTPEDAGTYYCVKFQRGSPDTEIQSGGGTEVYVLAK
- assayComment: SPR
API: value field is a number in nM; no unit string.

Query block: Please give the measured Kd for this binder: Hum1/AB25_HC_Mutall (antibody, V domains shown) VH: EVQLVESGGGVVQPGGSLRLSCAASGFTFSSNAMSWVRQAPGKGLEWVAGISSGSDTYYGDSVKGRFTISRDNSKNTLYLQMNSLTAEDTAVYYCARETWNHLFDYWGQGTLVTVSS VL: SYELTQPPSVSVSPGQTARITCSGGSYSSYYYAWYQQKPGQAPVTLIYSDDKRPSNIPERFSGSSSGTTVTLTISGVQAEDEADYYCGGYDQSSYTNPFGGGTKLTVL
Result block: 4.83

Query block: // repeat for Hum8/AB21_HC_Mutall (antibody, V domains shown, also called Hum8/AB21mutall) VH: EVQLVESGGGVVQPGGSLRLSCAASGFTFSSNAMSWVRQAPGKGLEWVAGISAGGSDTYYPASVKGRFTISRDNSKNTLYLQMNSLRAEDTAVYYCARETWNHLFDYWGQGTLVTVSS VL: SYELTQPPSVSVSPGQTARITCSGGAYSSYYYAWYQQKPGQAPVLVIYSDSKRPSGIPERFSGSSSGTTVTLTISGVQAEDEADYYCGGYDQSSYTNPFGGGTKLTVL and report
Result block: 27.8

Query block: // repeat for Hum9/AB21_HC_Mutall (antibody, V domains shown, also called Hum9/AB21mutall) VH: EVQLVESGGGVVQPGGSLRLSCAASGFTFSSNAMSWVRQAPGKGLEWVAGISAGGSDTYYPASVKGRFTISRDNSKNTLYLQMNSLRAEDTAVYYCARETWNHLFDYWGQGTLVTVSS VL: SYELTQPPSVSVSPGQTARITCSGGAYSSYYYAWYQQKPGQAPVLVIYSDDKRPSGIPERFSGSSSGTTVTLTISGVQAEDEADYYCGGYDQSSYTNPFGGGTKLTVL and report
Result block: 24.1
